These measurements were taken from ChEMBL document CHEMBL5634093.

experiment summary: Inhibition of human recombinant catalytic domain PDE4 (152 to 484 residues) by fluorescence polarization assay
Overview of reported pIC50 across a group of molecules:
On this scale, pIC50 is minus log10 of a concentration expressed in M (mol/L).

- compound string: "CC(=O)CCCOc1cc(C#N)c(Cl)nc1Oc1ccc2c(c1)COB2O"
  pIC50: 9.49

**Query** For the molecule `CC(C)OCCOc1cc(C#N)cnc1Oc1ccc2c(c1)COB2O` , what pIC50 is on record?
**Result** 8.52
